Kindly state chromatographic logP for each of the entries shown.
# assay.procedure: logP by HPLC on reversed-phase columns (C18), EEC Directive 79/831 Annex V.A8
# Type: physicochemical
# condition: reversed-phase HPLC column (C18); LC-MS, acidic range pH 2.7, 0.1% aqueous formic acid and acetonitrile; read-out: logP(HCO2H)
// response body must contain only the number

What does the data say about its chromatographic logP? Entry: Nc1snc(-c2ccccc2)c1Br 2.26

What does the data say about its chromatographic logP? Entry: N#Cc1c(Cc2ccc(Cl)cc2)nsc1N 2.4

What does the data say about its chromatographic logP? Entry: Clc1snc(-c2ccccc2)c1Br 4.41

What does the data say about its chromatographic logP? Entry: Nc1snc(-c2ccccc2)c1Cl 2.21

What does the data say about its chromatographic logP? Entry: CC(C)(C)c1nsc(N)c1C#N 2.4

###

Kindly state chromatographic logP for each of the entries shown.
# assay.procedure: logP by HPLC on reversed-phase columns (C18), EEC Directive 79/831 Annex V.A8
# Format: physicochemical
# condition: pH 2.7
// response body must contain only the number

What does the data say about its chromatographic logP? Entry: CCN(C)/C=N/c1cc(C)c(Oc2snc(-c3ccccc3)c2Cl)cc1C 2.25

What does the data say about its chromatographic logP? Entry: Clc1snc(-c2ccccc2)c1Cl 4.44

What does the data say about its chromatographic logP? Entry: Cc1cc(Oc2cc(-c3ccccc3)ns2)c(C)cc1N 3.6

What does the data say about its chromatographic logP? Entry: Clc1cc(-c2ccccc2)ns1 3.82

What does the data say about its chromatographic logP? Entry: Cc1cc(Oc2snc(-c3ccccc3)c2Br)c(Cl)cc1N 4.41

What does the data say about its chromatographic logP? Entry: Cc1cc(Oc2snc(Cc3ccc(Cl)cc3)c2C#N)c(C)cc1N 4.03
